# protocol: qHTS of TDP-43 Inhibitors; also: nearly all actives have a fitted effect of over 50% in size
# run_parameters: TDP-43 expressing yeast growth rescue, BacTiter-Glo, 24 h; series mostly up to 46.1 µM
Among all 410,000 compounds or so, about 7,200 (1.8%) were called active. About 7% were inconclusive and are not listed. Calls follow the shape of the dose curve; as a rule, active = well fitted activation curve with a large enough effect; inconclusive = small, poorly fitted or top-dose-only effect, or another doubt; inactive = no such curve, though single readings can be large or run the other way. The sample holds actives, similar compounds and a random draw of the others, so the mix is not that of the screen.
Give one outcome, nothing more. List: active, inactive

molecule | qualitative_label
CC(C)c1ccc(NS(=O)(=O)c2ccc3[nH]cc(C(=O)NC4CCCC4)c(=O)c3c2)cc1 | inactive
Cc1cc(C)c(NC(=O)c2cc3sc(Cl)cc3n2C)c(C)c1 | inactive
c1ccc(Nc2n[nH]nc2-c2ccccc2)cc1 | active

Next, consider the following molecule.
## Task Hello, I am checking results. What call was entered for CC1=C(C(=O)Nc2ccccc2Cl)C(c2cccs2)n2ncnc2N1 (stereo not given) ?
## Result inactive
